Can you tell me pKd for the items I'm about to list?
system under test: T1, ubiquitin mutein 211883
T1 construct: also called Affilin-211883
assay summary: SPR (Biacore 3000), ligand multimer immobilised, ubiquitin mutein in solution
Give bare numbers, as −log10 of the molar value.

binder	outcome measure	observed measurement
SEQ 21 tetramer (215998) (designed binder) NAARSDEAQYSAWAEIEALPNLTEMQKDQFIWSLMFDPSVSKEVLGEAQKLNDSQAPKQAPKVDAKFDQAPKVDAKFDNAARSDEAQYSAWAEIEALPNLTEMQKDQFIWSLMFDPSVSKEVLGEAQKLNDSQAPKQAPKVDAKFDQAPKVDAKFDNAARSDEAQYSAWAEIEALPNLTEMQKDQFIWSLMFDPSVSKEVLGEAQKLNDSQAPKQAPKVDAKFDQAPKVDAKFDNAARSDEAQYSAWAEIEALPNLTEMQKDQFIWSLMFDPSVSKEVLGEAQKLNDSQAPKC	pKd	7.02
SEQ1 dimer (215999) (designed binder) NAAMDDFAQYSAWAEIEALPNLTEMQKDQFIWSLMFDPSVSKEVLGEAQKLNDSQAPKQAPKVDAKFDQAPKVDAKFDNAAMDDFAQYSAWAEIEALPNLTEMQKDQFIWSLMFDPSVSKEVLGEAQKLNDSQAPKC	pKd	7.25

Input line: Any idea what its pKd is? The binder is SEQ21 dimer (215996) (designed binder) NAARSDEAQYSAWAEIEALPNLTEMQKDQFIWSLMFDPSVSKEVLGEAQKLNDSQAPKQAPKVDAKFDQAPKVDAKFDNAARSDEAQYSAWAEIEALPNLTEMQKDQFIWSLMFDPSVSKEVLGEAQKLNDSQAPKC
Output line: 7.11
